Test system: U251 CNS
Assay: NCI-60 one-dose screen, 48 h (100 = growth as untreated, 0 = no growth, -100 = all killed)
Conditions: 10 µM unless noted
About 83,000 compounds went through this panel and 20% of them were active in at least one assay; those are over-represented in the sample as a whole. Activity calls are given as the source filed them. How the source made its calls: active means growth percent below 10; inactive means the rest.
Exercise: state measured growth for each of the compounds provided.

Exam item: Recall the recorded growth for COc1ccc2c(c1)c(-c1nc(-c3c[nH]c4ncccc34)cs1)cn2CCN1CCOCC1 with U251 CNS and state it.
Marked response: 45.6% (inactive)

Exam item: Please give the result for CC[C@H](C)[C@@H]([C@@H](CC(=O)N1CCC[C@H]1[C@H](OC)[C@@H](C)C(=O)N[C@H](C)[C@@H](O)c1ccccc1)OC)N(C)C(=O)[C@@H](NC(=O)[C@@H](NC)C(C)C)C(C)C too.
Marked response: 6.43% (active)

Exam item: What do we get for CC1[C@H](C)OC(=O)CC(O)CC(O)CC(O)CCC(O)C(O)C[C@]2(O)CC(O)C(C(=O)O)C(CC(OC3O[C@H](C)[C@@H](O)[C@H](N)[C@@H]3O)/C=C/C=C/C=C/C=C/CC/C=C/C=C/[C@H](C)[C@H]1O)O2 (stereo partly specified) ?
Marked response: 92.4% (inactive)

Exam item: Another: CCC1CC(O)c2c(O)c3c(c(O)c2C1O)C(=O)c1cccc(O)c1C3=O (stereo unspecified) (tested in a mixture with another compound)
Marked response: -12.2% (active)

Exam item: # iterate: COC(=O)[C@@H](C)C[C@H](Cc1ccccc1)NC(=O)c1csc([C@@H](C[C@H](C(C)C)N(C)C(=O)[C@@H](NC(=O)[C@H]2CCCCN2C)C(C(F)(F)F)C(F)(F)F)OC(C)=O)n1
Marked response: 3.74% (active)

Exam item: Follow-up entry: Cc1sc2c(c1C)C(c1ccc(Cl)cc1)=N[C@@H](CC(=O)OC(C)(C)C)c1nnc(C)n1-2
Marked response: 52.4% (inactive)
